System: SNK-6 (IL-2 2.5 ng/mL)
Assay: percent inhibition of viability; higher = more inhibition;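 note: normalised to DMSO-only wells as negative and benzethonium chloride as positive control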
Conditions: 72 h; 10000 nM
Listed below: percent inhibition of viability values for each entry.
Answer as a quantity: numeral, then unit.

Some solved entries appear below for comparison.
CC1(C)NC(=O)N(c2ccc([N+](=O)[O-])c(C(F)(F)F)c2)C1=O [Nilutamide] (max concentration tested 10000 nM)	-4.35%
CC/C(=C(\c1ccccc1)c1ccc(OCCN(C)C)cc1)c1ccccc1 [Tamoxifen] (max concentration tested 10000 nM)	51.8%
CCn1c(C(=O)N(C2CC2)C2CC2)cc2c3c(ncn3C)c(Nc3cc(C)n(C)n3)nc21 (max concentration tested 10000 nM)	7.74%

(Q) What reported percent inhibition of viability corresponds to COc1nc(N)nc2c1ncn2[C@@H]1O[C@H](CO)[C@@H](O)[C@@H]1O [Nelarabine] (max concentration tested 10000 nM) on SNK-6 (IL-2 2.5 ng/mL)?
(A) -2.36%

(Q) What reported percent inhibition of viability corresponds to c1ccc(Cn2c(-c3ccc(OC[C@H](C4CCNCC4)n4c(-c5ccccc5)nc5ccccc54)cc3)nc3ccccc32)cc1 [deltarasin] (max concentration tested 10000 nM) on SNK-6 (IL-2 2.5 ng/mL)?
(A) 100%

(Q) What reported percent inhibition of viability corresponds to Cc1ccc(Nc2nccc(N(C)c3ccc4c(C)n(C)nc4c3)n2)cc1S(N)(=O)=O [Pazopanib] (max concentration tested 10000 nM) on SNK-6 (IL-2 2.5 ng/mL)?
(A) 48.6%

====

System: normal primary NK cells, pool 1 (3 donors) (IL-2 2.5 ng/mL)
Experiment: percent inhibition of viability; higher = more inhibition
Conditions: 72 h; 100 nM
metric.name: percent inhibition of viability (%)
Provide only the numeric value, understood in %.

CN(C)CCN1C(=O)c2cccc3cc(N)cc(c23)C1=O [Amonafide] (max concentration tested 10000 nM)	-8.88

(Q) Param item = CC(C)N(C[C@H]1O[C@@H](n2cnc3c(N)ncnc32)[C@H](O)[C@@H]1O)[C@H]1C[C@@H](CCc2nc3cc(C(C)(C)C)ccc3[nH]2)C1 [EPZ-5676] (max concentration tested 1000 nM) ; retrieve measured percent inhibition of viability.
(A) 13.4

(Q) Param item = COc1cc(CCc2cc(NC(=O)c3ccc(N4CC(C)NC(C)C4)cc3)n[nH]2)cc(OC)c1 (stereo not drawn) [AZD4547] (max concentration tested 1000 nM) ; retrieve measured percent inhibition of viability.
(A) 8.85

(Q) Param item = CC1(COc2ccc3c(c2)ncn3-c2ccc3cccc(N4CCC(N)CC4)c3n2)COC1 [Crenolanib] (max concentration tested 10000 nM) ; retrieve measured percent inhibition of viability.
(A) -3.03

(Q) Param item = Nc1ccccc1NC(=O)c1ccc(CNc2nccc(-c3cccnc3)n2)cc1 [Mocetinostat] (max concentration tested 10000 nM) ; retrieve measured percent inhibition of viability.
(A) 15.1

(Q) Param item = Cc1ccc(Nc2nccc(N(C)c3ccc4c(C)n(C)nc4c3)n2)cc1S(N)(=O)=O [Pazopanib] (max concentration tested 10000 nM) ; retrieve measured percent inhibition of viability.
(A) -7.48

(Q) Param item = Nc1nc(Cl)nc2c1ncn2[C@@H]1O[C@H](CO)[C@@H](O)[C@@H]1F [Clofarabine] (max concentration tested 10000 nM) ; retrieve measured percent inhibition of viability.
(A) 95.2

(Q) Param item = CCCCCCCCc1ccc(CCC(N)(CO)CO)cc1 [Fingolimod] (max concentration tested 10000 nM) ; retrieve measured percent inhibition of viability.
(A) -0.07

(Q) Param item = N#CC1(c2ccc(NC(=O)c3cccnc3NCc3ccncc3)cc2)CCCC1 [Apatinib] (max concentration tested 10000 nM) ; retrieve measured percent inhibition of viability.
(A) -4.55

(Q) Param item = Cc1cccc(-c2nn3c(c2-c2ccnc4ccc(C(N)=O)cc24)CCC3)n1 [Galunisertib] (max concentration tested 1000 nM) ; retrieve measured percent inhibition of viability.
(A) -2.92

(Q) Param item = CCC(C)(C)C(=O)O[C@H]1C[C@@H](C)C=C2C=C[C@H](C)[C@H](CC[C@@H]3C[C@@H](O)CC(=O)O3)[C@H]21 [Simvastatin] (max concentration tested 10000 nM) ; retrieve measured percent inhibition of viability.
(A) -16.5

(Q) Param item = COc1cc(OC)c(/C=C/S(=O)(=O)Cc2ccc(OC)c(NCC(=O)O)c2)c(OC)c1 [Rigosertib] (max concentration tested 10000 nM) ; retrieve measured percent inhibition of viability.
(A) -2.02

(Q) Param item = O=P1(NCCCl)OCCCN1CCCl (stereo not drawn) [Ifosfamide] (max concentration tested 10000 nM) ; retrieve measured percent inhibition of viability.
(A) -2.79
